Provenance of the data: ChEMBL document CHEMBL4251653

Please provide measured solubility at 4 h for the entries that follow.
Assay: Solubility of the compound in FaSSIF at pH 6.5 incubated for 4 hrs by UPLC-MS method
Assay type: physicochemical
Answers are plain numbers, in µg/mL.

Look over these answered cases.
# Molecule, Experimental Readout, Experimental Result
data = [
    ("Cc1c(CN2CCOCC2)cc(-c2ccc(C(C)C)cc2)n1C(C)C", "solubility at 4 h", 249),
    ("Cc1c(CN2CCOCC2)cc(-c2ccc(C(C)C)cc2)n1-c1ccc(F)cc1", "solubility at 4 h", 5),
    ("Cc1c(CN2CCOCC2)cc(-c2ccc(C(C)C)cc2)n1C1CC1", "solubility at 4 h", 511),
]

Now take the following molecule into account.
Note to self: solubility at 4 h recorded for Cc1c(CN2CCOCC2)cc(-c2ccc(C(C)C)cc2)n1C1CCCOC1 (centres undefined) was 43

* * *

Tested on: HepG2
Experiment: Cytotoxicity against human HepG2 cells assessed as compound concentration causing changes in mitochondrial potential by Cell Health assay
Assay type: cell-based
Experimental Readout: Activity (µM)
Answers are plain numbers, in µM.

Reference set, count: 3
# Compound, Tested Target, Activity (µM)
measured = [
    ("Cc1c(CN2CCOCC2)cc(-c2ccc(C(C)C)cc2)n1CC(C)(C)O", "HepG2", 126),
    ("Cc1c(CN2CCOCC2)cc(-c2ccc(C(C)C)cc2)n1CC1CCCO1 (centres undefined)", "HepG2", 63),
    ("Cc1c(CN2CCOCC2)cc(-c2ccc(C(C)C)cc2)n1C(C)C", "HepG2", 32),
]

Could I get Activity for every one of these entries?
1. Cc1c(CN2CCOCC2)cc(-c2ccc(C(C)C)cc2)n1-c1ccc(F)cn1
2. Cc1c(CN2CCOCC2)cc(-c2ccc(C(C)C)cc2)n1C

Reply:
1: 80; 2: 50

// batch mode: one Activity value per listed entry
1. Cc1c(CN2CCOCC2)cc(-c2ccc(C(C)C)cc2)n1C1CCC1
2. COCCCn1c(-c2ccc(C(C)C)cc2)cc(CN2CCOCC2)c1C

Reply:
[32, 50]

Below is a list of compounds. For each, state its recorded Activity.
1. Cc1c(CN2CCOCC2)cc(-c2ccc(C(C)C)cc2)n1C1CC1
2. Cc1c(CN2CCOCC2)cc(-c2ccc(C(C)C)cc2)n1C1COC1

Reply:
1. 50
2. 100

* * *

Assay: Volume of distribution at steady state in C57BL/6 mouse at 1 mg/kg, iv after 1 to 24 hrs by LC-MS/MS method
Type: ADME, organism-based
Details: in vivo, read-out: Vdss
Experimental Readout: Vd (L/kg)
Give bare numbers, in L/kg.

Reported Vd of Cc1c(CN2CCOCC2)cc(-c2ccc(C(C)C)cc2)n1C1CCCOC1 (stereo unspecified) : 3.5

* * *

Test: Half life in C57BL/6 mouse at 1 mg/kg, iv after 1 to 24 hrs by LC-MS/MS method
Format: ADME, organism-based
Details: in vivo
Experimental Readout: half-life (min)
Numbers only, in min.

Note to self: half-life recorded for Cc1c(CN2CCOCC2)cc(-c2ccc(C(C)C)cc2)n1C1CCCOC1 (stereo unspecified) was 24

* * *

Test system: Mycobacterium tuberculosis
Assay: microbe, parasite or virus in culture
Conditions: H37Rv, THP-1, 96 h
Description: Antitubercular activity against Mycobacterium tuberculosis H37Rv infected in human THP1 macrophages incubated for 4 days by luciferase reporter gene assay
Experimental Readout: IC50

In the examples that follow, each entry is paired with its recorded IC50.
# Smiles Input, IC50
measured = [
    ("Cc1c(CN2CCOCC2)cc(-c2ccc(Cl)cn2)n1-c1ccc(F)cc1", "> 10000 nM"),
    ("Cc1c(CN2CCOCC2)cc(-c2ccc(C(C)C)cc2)n1C1CC1", "200 nM"),
    ("Cc1c(CN2CCOCC2)cc(-c2ccc(C(C)C)cc2)n1CC(C)C", "80 nM"),
    ("Cc1c(CN2CCOCC2)cc(-c2ccc(C(C)C)cc2)n1C", "1250 nM"),
    ("Cc1c(CN2CCOCC2)cc(-c2ccc(C(C)C)cc2)n1-c1ccc(F)cn1", "600 nM"),
]

Next, consider the following molecule.
The molecule identified as "COCCCn1c(-c2ccc(C(C)C)cc2)cc(CN2CCOCC2)c1C" registered its IC50 at 1250 nM

* * *

Test: AUC (0 to infinity) in C57BL/6 mouse at 1 mg/kg, iv after 1 to 24 hrs by LC-MS/MS method
Type: ADME, organism-based
Parameters: dose 1 mg/kg, time infinity, route intravenous
Conditions: in vivo
Experimental Readout: AUC(0-inf) (ng·h/mL)
Numbers only, in ng·h/mL.

Kindly note the recorded AUC(0-inf) for Cc1c(CN2CCOCC2)cc(-c2ccc(C(C)C)cc2)n1C1CCCOC1 (stereo unspecified) , which is 138

* * *

Assay: Kinetic solubility in pH 7.4 phosphate buffered saline incubated for 1 hr by chemiluminescent nitrogen detection method
Format: physicochemical
Settings: read-out: Kinetic_solubility
Experimental Readout: log10(solubility kinetic at 1 h) (log10 of the value in µM)
For clarity, the numbers are log10 values of solubility kinetic at 1 h expressed in µM.

# Molecule, log10(solubility kinetic at 1 h)
data = [
    ("Cc1c(CN2CCOCC2)cc(-c2ccc(C(C)C)cc2)n1C1CCCOC1 (stereo not given)", 2.38),
    ("Cc1c(CN2CCOCC2)cc(-c2ccc(C(C)C)cc2)n1-c1ccc(F)cn1", 2.44),
    ("Cc1c(CN2CCOCC2)cc(-c2ccc(C(C)C)cc2)n1C1CC1", 2.26),
]

Kindly give each listed record's log10(solubility kinetic at 1 h).
1. Cc1c(CN2CCOCC2)cc(-c2ccc(C(C)C)cc2)n1Cc1ccc(F)cc1
2. Cc1c(CN2CCOCC2)cc(-c2ccc(C(C)C)cc2)n1C1CCC1
3. Cc1c(CN2CCOCC2)cc(-c2ccc(C(C)C)cc2)n1CC(C)C
4. Cc1c(CN2CCOCC2)cc(-c2ccc(C(C)C)cc2)n1C(C)C

Reply:
1. 1.04
2. 1.85
3. 1.67
4. 2.30

* * *

Assay: Permeability of the compound by artificial membrane permeability assay
Format: ADME
Details: PAMPA; read-out: permeability
Please respond with reported Papp for every item in the list.
One number for each entry, in ×10⁻⁶ cm/s.

# Compound, Papp [×10⁻⁶ cm/s]
rows = [
    ("Cc1c(CN2CCOCC2)cc(-c2ccc(C(C)C)cc2)n1-c1ccc(F)cn1", 64),
    ("Cc1c(CN2CCOCC2)cc(-c2ccc(C(F)(F)F)cc2)n1-c1ccc(F)cc1", 15),
]

Each of the following entries comes with a recorded value; kindly state Papp for each.
1. Cc1c(CN2CCOCC2)cc(-c2ccc(C(C)C)cc2)n1C1CCC1
2. Cc1c(CN2CCOCC2)cc(-c2ccc(C(C)C)cc2)n1CC(C)C
3. Cc1c(CN2CCOCC2)cc(-c2ccc(C(C)C)cc2)n1C1CCCOC1 (centres undefined)
4. Cc1c(CN2CCOCC2)cc(-c2ccc(C(C)C)cc2)n1-c1ccc(F)cc1
5. Cc1c(CN2CCOCC2)cc(-c2ccc(C(C)C)cc2)n1C(C)C
6. Cc1c(CN2CCOCC2)cc(-c2ccc(C(C)C)cc2)n1Cc1ccc(F)cc1

Reply:
[55, 43, 73, 24, 72, 30]

For this compound ( "Cc1c(CN2CCOCC2)cc(-c2ccc(C(C)C)cc2)n1C1CCCCC1" ), measured Papp is 27

* * *

Assign logD to each entry below.
Assay: Lipophilicity, log D of the compound at pH 7.4 by UV-HPLC method
Assay type: physicochemical
Settings: buffer, read-out: logD
Numbers only.

Known logD results, listed for orientation:
# Compound, Experimental Result
rows = [
    ("Cc1c(CN2CCOCC2)cc(-c2ccc(C(C)C)cc2)n1CC(C)C", 8.46),
    ("Cc1c(CN2CCOCC2)cc(-c2ccc(C(F)(F)F)cc2)n1-c1ccc(F)cc1", 7.67),
    ("Cc1c(CN2CCOCC2)cc(-c2ccc(C(C)C)cc2)n1-c1ccc(F)cc1", 8.1),
    ("Cc1c(CN2CCOCC2)cc(-c2ccc(C(C)C)cc2)n1C1CCCOC1 (centres undefined)", 6.86),
    ("Cc1c(CN2CCOCC2)cc(-c2ccc(C(C)C)cc2)n1Cc1ccc(F)cc1", 8.2),
    ("Cc1c(CN2CCOCC2)cc(-c2ccc(C(C)C)cc2)n1C1CC1", 7.21),
]

Look at each compound and report its logD.
1. Cc1c(CN2CCOCC2)cc(-c2ccc(C(C)C)cc2)n1C1CCC1
2. Cc1c(CN2CCOCC2)cc(-c2ccc(C(C)C)cc2)n1-c1ccc(F)cn1

Reply:
1: 8.13; 2: 6.85

For record "Cc1c(CN2CCOCC2)cc(-c2ccc(C(C)C)cc2)n1C(C)C" the listed logD is 7.68

* * *

Could you please report measured IC50 for the items listed next?
Target: UniProt Q12809
Sequence (Q12809 whole entry): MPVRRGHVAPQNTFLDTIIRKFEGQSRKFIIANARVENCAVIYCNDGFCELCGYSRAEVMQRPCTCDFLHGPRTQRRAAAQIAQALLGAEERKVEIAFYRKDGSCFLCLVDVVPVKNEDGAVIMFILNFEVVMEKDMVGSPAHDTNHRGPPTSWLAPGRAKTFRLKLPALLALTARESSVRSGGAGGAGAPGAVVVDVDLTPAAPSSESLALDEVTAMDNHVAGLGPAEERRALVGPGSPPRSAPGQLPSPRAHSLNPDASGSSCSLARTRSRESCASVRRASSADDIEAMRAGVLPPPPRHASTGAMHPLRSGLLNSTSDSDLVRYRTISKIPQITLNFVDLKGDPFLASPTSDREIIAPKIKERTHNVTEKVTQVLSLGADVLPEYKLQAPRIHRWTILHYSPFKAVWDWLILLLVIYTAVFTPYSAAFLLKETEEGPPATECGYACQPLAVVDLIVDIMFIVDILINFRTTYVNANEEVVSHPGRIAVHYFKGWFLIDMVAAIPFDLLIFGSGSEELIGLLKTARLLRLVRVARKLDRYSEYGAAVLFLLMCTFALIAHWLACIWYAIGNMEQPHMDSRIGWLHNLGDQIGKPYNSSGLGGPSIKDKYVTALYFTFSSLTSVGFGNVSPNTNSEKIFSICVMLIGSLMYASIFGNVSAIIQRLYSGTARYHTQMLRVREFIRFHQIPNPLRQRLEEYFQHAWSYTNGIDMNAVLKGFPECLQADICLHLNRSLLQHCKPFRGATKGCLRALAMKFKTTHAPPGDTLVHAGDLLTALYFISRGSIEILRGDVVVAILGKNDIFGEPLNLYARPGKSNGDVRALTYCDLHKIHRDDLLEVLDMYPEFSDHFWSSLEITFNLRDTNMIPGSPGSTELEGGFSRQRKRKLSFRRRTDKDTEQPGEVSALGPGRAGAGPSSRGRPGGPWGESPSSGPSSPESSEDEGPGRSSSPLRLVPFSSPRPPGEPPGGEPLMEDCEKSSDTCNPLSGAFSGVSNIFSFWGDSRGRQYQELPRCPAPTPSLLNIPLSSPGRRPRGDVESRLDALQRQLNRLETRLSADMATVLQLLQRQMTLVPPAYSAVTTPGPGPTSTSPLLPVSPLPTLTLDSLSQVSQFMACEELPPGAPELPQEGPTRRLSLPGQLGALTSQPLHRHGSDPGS
Assay: Inhibition of human ERG by [3H]dofetilide binding displacement assay
Numbers only, in µM.

Take a look at these entries with their results.
# Compound, IC50 / µM
data = [
    ("Cc1c(CN2CCOCC2)cc(-c2ccc(C(C)C)cc2)n1C1CCC1", 8),
    ("Cc1c(CN2CCOCC2)cc(-c2ccc(C(C)C)cc2)n1C1CCCOC1 (centres undefined)", 10),
    ("Cc1c(CN2CCOCC2)cc(-c2ccc(C(C)C)cc2)n1CC(C)C", 16),
    ("Cc1c(CN2CCOCC2)cc(-c2ccc(C(C)C)cc2)n1-c1ccc(F)cn1", 8),
    ("Cc1c(CN2CCOCC2)cc(-c2ccc(C(C)C)cc2)n1C1CC1", 8),
    ("Cc1c(CN2CCOCC2)cc(-c2ccc(C(C)C)cc2)n1-c1ccc(F)cc1", 10),
]

Provide IC50 for all items below, preserving their order.
1. Cc1c(CN2CCOCC2)cc(-c2ccc(C(C)C)cc2)n1Cc1ccc(F)cc1
2. Cc1c(CN2CCOCC2)cc(-c2ccc(C(C)C)cc2)n1C1CCCCC1

Reply:
[5, 50]
